Experiment: Primary qHTS for inhibitors of nuclear receptor binding SET domain protein 2 (NSD2) in an isogenic RCH-ACV NSD2 p.E1099K mutant (9B) (AID 1645876); further: nearly all actives have a fitted effect of over 70% in size
Conditions: RCH-ACV (leukaemia line) NSD2 E1099K (9B) viability, CellTiter-Glo, 72 h; series mostly up to 44.9 µM
Inconclusive results are not listed. Calls of active or inactive are those of the source. The call rests on the fitted dose curve; in most records, active means well fitted inhibition curve with a large enough effect; inconclusive means small, poorly fitted or top-dose-only effect; inactive means flat fitted curve, though single readings scatter. *1 amine or outer side, *2 acyl side, *3 side chain or, on linkers, in order; H or OH if unused. Where a SMILES comes first, the peptide text is derived from it. [ ]: non-standard residue; d: D form. X5 = CC(CC(O[*:1])C(=O)[*:2])C(=O)O; NMeV = CN[CH](C(=O)O)C(C)C; NMeA = CN[CH](C)C(=O)O; βAla = NCCC(=O)O
Outcome codes: active, inactive

{"columns": ["compound", "assigned-class"],
 "data": [
  ["CCC(C)C1NC(=O)C2CCCN2C(=O)C(CC(C)C(=O)O)OC(=O)CCNC(=O)C(C)N(C)C(=O)C(C(C)C)N(C)C1=O (centres undefined) (cyclo([X5]PI[NMeV][NMeA][βAla]); configuration not given here)", "inactive"],
  ["CC(C)[C@H](NC(=O)c1nn(Cc2ccc(F)cc2)c2ccccc12)C(N)=O", "inactive"],
  ["COc1ccc(CC2C(=O)NC(C)C(=O)N(C)C3Cc4ccc(cc4)Oc4cc(ccc4OC4OC(CO)C(O)C(O)C4O)CC(C(=O)NC(C)C(=O)NC(CCC(=O)O)C(=O)N2C)N(C)C3=O)cc1 (centres undefined)", "active"],
  ["O=C1CN=C(c2cccc(Br)c2)c2oc3ccccc3c2N1", "active"],
  ["CC1CCCC(=O)CCC/C=C/c2cc(O)cc(O)c2C(=O)O1 (centres undefined)", "inactive"],
  ["Cc1ccc(Cn2nc(C(=O)N[C@@H]3C(C)(C)[C@@H]4CC[C@@]3(C)C4)cc2-c2ccc(Cl)c(C)c2)cc1", "inactive"],
  ["COC[C@]12CN(C)C3C4[C@H](OC)[C@H]1C3(C(OC)C[C@H]2O)[C@H]1C[C@@]2(O)[C@H](OC(=O)c3ccccc3)[C@@H]1[C@]4(O)[C@@H](O)[C@@H]2OC (some centres undefined)", "inactive"],
  ["CC1=CC2(O)/C=C/C(C)(O)C(O)C(O)/C=C/C(=O)OC23C(=O)NC(CC(C)C)C3C1C (centres undefined)", "inactive"],
  ["CC[C@H](C)[C@H](NC(=O)[C@H]1CCCCN1C)C(=O)N(COC(=O)CC(C)C)[C@H](C[C@@H](OC(C)=O)c1nc(C(=O)N[C@@H](Cc2ccc(O)cc2)C[C@H](C)C(=O)O)cs1)C(C)C", "active"],
  ["C=C1[C@@]23C(=O)O[C@H](C)[C@]24O[C@@]2(C(=C)[C@]5(C=CC(=O)OC5(C)C)CC[C@]32C)[C@H](O)[C@@]1(C)OC4=O", "inactive"],
  ["CN1CCc2cc3c(cc2[C@H]1[C@@H]1OC(=O)c2c1ccc1c2OCO1)OCO3", "inactive"],
  ["COc1cc(O)c2c(c1)CCC[C@@H](O)[C@H](O)C(=O)/C=C\\C[C@H](C)OC2=O", "active"],
  ["C#C[C@]1(O)CC[C@H]2[C@@H]3CC[C@H]4Cc5nc6nc7ccccc7n6cc5C[C@]4(C)[C@H]3CC[C@@]21C", "active"],
  ["CC[C@H]1C2CC3[C@@H]4N(C)c5ccccc5[C@]45C[C@@H]([C@H]2[C@H]5O)N3[C@@H]1O", "inactive"]
]}

---

Assay: Validation screen for inhibitors of Lassa infection (AID 463096); further: potency means the concentration at half of the fitted maximal effect
Conditions: Lassa virus infection, cell-based; series mostly up to 46.1 µM
Inconclusive results are not listed. Activity calls are given as the source filed them. Calls come from the whole dose curve.
measured-quantity: Potency

{"columns": ["molecule", "assay-result"],
 "data": [
  ["O=c1[nH]c2cc(Cl)ccc2c(O)c1-c1ccc(Oc2ccccc2)cc1", "inactive"],
  ["C=CCN1CCc2c(cc(O)c(O)c2Cl)C(c2ccccc2)C1 (stereo unspecified)", "inactive"],
  ["CC1(C)CCC(NC(=O)[C@@H](N)CCC(=O)O)CC1", "inactive"],
  ["N[C@@H](CC(=O)O)C(=O)O", "inactive"],
  ["N[C@@H](Cn1cc(I)c(=O)[nH]c1=O)C(=O)O", "inactive"],
  ["O=C1NC(c2cccc([N+](=O)[O-])c2)=CCN1c1ccccc1O", "inactive"],
  ["CCCc1c(-c2ccc(O)cc2)nn(-c2ccc(O)cc2)c1-c1ccc(O)cc1", "2000 nM (active)"],
  ["CC(N)(C(=O)O)c1ccc(C(=O)O)cc1 (stereo unspecified)", "inactive"],
  ["CC(=O)O[C@H]1CC2(C)[C@@H](C[C@@H](O)[C@H]3[C@@]4(C)CC[C@@H](O)[C@@H](C)[C@@H]4CC[C@@]32C)C1=C(CCC=C(C)C)C(=O)O (stereo partly specified)", "inactive"],
  ["c1ccc2nc(C3=NCCN3)ccc2c1", "inactive"],
  ["CC1CCN=C(N)S1 (stereo unspecified)", "inactive"]
]}

---

Experiment: Cell Viability - N2a (AID 540);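 further: cells exposed to compound for 40 h at 37 °C; plate controls were DMSO alone for no effect and tamoxifen control for full effect; nearly all actives have a fitted effect of over 45% in size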
Details: N2a mouse neuroblastoma cell viability; at 92.2 µM (top of the series)
Results filed as inconclusive are left out.
Listing of entries alongside the reported activity change, negative = cytotoxicity.

{"columns": ["smiles-repr", "result-units", "activity change, negative = cytotoxicity"],
 "data": [
  ["CC(=O)/C=C/c1ccccc1", "%", -5.72],
  ["O=Cc1ccccc1", "%", 6.11],
  ["CCOc1cc(C=O)ccc1O", "%", -1.75],
  ["CCOC(=O)c1ccccc1N", "%", 3.3]
]}

---

Test: qHTS for Inhibitors of the Functional Ribonucleoprotein Complex (vRNP) of Lassa (LASV) Arenavirus: LASV Primary Screen - GLuc reporter signal (AID 1347082); further: nearly all actives have a fitted effect of over 60% in size
Conditions: LASV minigenome vRNP, Gaussia luciferase reporter; series mostly up to 57.5 µM
Results filed as inconclusive are left out. Activity calls are given as the source filed them. Calls come from the whole dose curve; tested in HEK293 reporter line.
Outcome codes: t = active, f = inactive

{"columns": ["molecule", "assigned-class"],
 "data": [
  ["COC(=O)C(O)C(O)(CCC(C)C)C(=O)OC1C(OC)=CC23CCCN2CCc2cc4c(cc2C13)OCO4 (stereo not given)", "f"],
  ["C=C1CCC(OC(C)=O)C2(C)CCC3C(C)C(=O)OC3C12O (stereo not given)", "f"],
  ["COc1ccc([C@H]2Cc3cccc(O)c3C(=O)O2)cc1O", "f"],
  ["CC1=C(/C=C/C(C)=C/C=C/C(C)=C\\C(=O)O)C(C)(C)CCC1", "f"],
  ["CC(C)(O)c1cc2nc(-c3cnc(N)nc3)nc(N3CCOCC3)c2s1", "t"],
  ["Cc1cnccn1", "f"],
  ["CC(=O)OCC1=C(C(=O)O)N2C(=O)[C@@H](NC(=O)Cc3ccccc3)[C@H]2SC1", "f"],
  ["OC[C@H]1O[C@@H](n2cnc3c(NC4CCCCC4)ncnc32)[C@H](O)[C@@H]1O", "f"],
  ["Nc1cccc(-c2cc3c(Oc4cccc(O)c4)ncnc3[nH]2)c1", "f"],
  ["Cc1c(O)cccc1C(=O)N[C@@H](CSc1ccccc1)[C@H](O)CN1C[C@H]2CCCC[C@@H]2C[C@@H]1C(=O)NC(C)(C)C", "f"]
]}

---

Experiment: qHTS profiling of the MIPE4 collection as inhibitors of Plasmodium falciparum (HB3) proliferation (AID 743347);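 further: plate controls were DMSO vehicle wells for no effect and artemisinin wells for full effect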
Details: P. falciparum HB3 in erythrocytes, SYBR Green DNA, 72 h; at 28.5 µM (top of the series) unless noted
Please note: growth, % of control exactly at 60% is class 0. Only values below 60% get class 1.

{"columns": ["compound", "assigned-class"],
 "data": [
  ["CC(=O)[C@H]1CC[C@H]2[C@@H]3CCC4=CC(=O)CC[C@]4(C)[C@H]3CC[C@]12C", "class 1"],
  ["CN[C@H](CC(C)C)C(=O)N[C@H]1C(=O)N[C@@H](CC(N)=O)C(=O)N[C@@H]2C(=O)N[C@H]3C(=O)N[C@H](C(=O)N[C@H](C(=O)O)c4cc(O)cc(O)c4-c4cc3ccc4O)[C@H](O)c3ccc(c(Cl)c3)Oc3cc2cc(c3O[C@@H]2O[C@H](CO)[C@@H](O)[C@H](O)[C@@H]2O[C@H]2C[C@](C)(N)[C@H](O)[C@H](C)O2)Oc2ccc(cc2Cl)[C@H]1O", "class 0"],
  ["CON=C(C(=O)N[C@@H]1C(=O)N2C(C(=O)O)=C(Cn3ccc(=N)n3CCO)CS[C@H]12)c1csc(N)n1", "class 0"],
  ["C=C1C[C@@]2(O)O[C@@]3(C[C@H]2C(C)C)[C@H](C)CC[C@H]13", "class 0"],
  ["C=C(C)[C@@H]1CC[C@]2(C(=O)O)CC[C@]3(C)[C@H](CC[C@@H]4[C@@]5(C)CC[C@H](O)C(C)(C)[C@@H]5CC[C@]43C)[C@@H]12", "class 0"],
  ["CCOC1OC(=O)C[C@H]1NC(=O)[C@@H]1CCCN1C(=O)[C@@H](NC(=O)c1ccc(N)c(Cl)c1)C(C)(C)C (some centres undefined)", "class 0"],
  ["Nc1nc(OCc2ccccc2)c2[nH]cnc2n1", "class 1"],
  ["CCN1C[C@H](C)n2c(c(O)c3c(=O)n(Cc4ccc(F)c(Cl)c4)nc(C(=O)NC)c32)C1=O", "class 1"],
  ["CN1c2cc(O)c(N=NC(N)=O)cc2CC1S(=O)(=O)O (centres undefined)", "class 1"],
  ["C[C@@H](c1ncncc1F)[C@](O)(Cn1cncn1)c1ccc(F)cc1F", "class 0"],
  ["O=C1c2cccc(O)c2C(=O)c2c(O)cc(CO)cc21", "class 0"],
  ["O=C1CC[C@@]2(O)[C@H]3Cc4ccc(O)c5c4C2(CCN3CC2CC2)[C@H]1O5", "class 0"],
  ["CC(=O)N(O)CCCP(=O)(O)O", "class 1"],
  ["COc1cc(CNC(=O)CCCCC=CC(C)C)ccc1O", "class 0"],
  ["CN1C2CCC1CC(OC(=O)C(CO)c1ccccc1)C2 (centres undefined)", "class 0"]
]}
